Test system: U2OS
Experiment: Multiplex assay against U2OS
Assay type: toxicity, cell-based
Conditions: human, 48 h, 1 µM, compound concentration 1 uM, replicate 1
Value kind: Total Cell Count

1) O=C1N/C(=N/c2ccccc2F)S/C1=C\c1ccc(C(=O)O)cc1 = 134
2) Cl.Oc1ccc2c3c1O[C@H]1c4[nH]c5c(c4C[C@@]4(O)[C@@H](C2)N(CC2CC2)CC[C@]314)C[C@@]1(O)[C@H]2Cc3ccc(O)c4c3[C@@]1(CCN2CC1CC1)[C@H]5O4 = 107
3) O=C(Nc1ccc(-c2ccnc(Nc3ccc(N4CCOCC4)cc3)n2)cc1)[C@@H]1CCCN1 = 94
4) Cc1cn(-c2cc(NC(=O)c3ccc(C)c(Nc4nccc(-c5cccnc5)n4)c3)cc(C(F)(F)F)c2)cn1 = 127
5) Cc1cc(C)c(S(=O)(=O)N(Cc2ccc(-c3cccc(S(C)(=O)=O)c3)cc2)Cc2ccc(C(F)(F)F)o2)c(C)c1 = 116
6) CCCn1c(=O)c2[nH]c(-c3cnn(Cc4cccc(C(F)(F)F)c4)c3)nc2n(CC)c1=O = 2377
7) O=C(Cc1ccc(-c2ccc(OCCN3CCOCC3)cc2)cn1)NCc1ccccc1 = 340
8) CN1CCC(=C2c3ccccc3CC(=O)c3sccc32)CC1.O=C(O)/C=C/C(=O)O [KETOTIFEN FUMARATE] = 182

###

System: Fibroblast
Assay: Multiplex assay against human fibroblast
Format: toxicity, cell-based
Conditions: 24 h, 10 µM, compound concentration 10 uM, replicate 1
Value kind: Population Tubulin-Different-Phenotype (%)

1. CCOc1cc(C(=O)N2CCC(N3CCN(C)CC3)CC2)ccc1Nc1ncc2c(n1)N(C1CCCC1)c1ccccc1C(=O)N2C = 92
2. COc1cc2ncnc(Nc3ccc(F)c(Cl)c3)c2cc1NC(=O)/C=C/CN1CCCCC1 [DACOMITINIB ANHYDROUS] = 3
3. CN1C2CCC1CC(OC(c1ccc(F)cc1)c1ccc(F)cc1)C2.Cl (stereo not given) = 60
4. CCc1cccc(CC)c1NC(=O)c1nn(C)c2c1CCc1cnc(Nc3ccc(C(=O)NC4CCN(C)CC4)cc3OC(F)(F)F)nc1-2 = 50
5. O=C(Nc1ccc(-c2ccnc(Nc3ccc(N4CCOCC4)cc3)n2)cc1)[C@@H]1CCCN1 = 74

###

Test system: U2OS
Experiment: Multiplex assay against U2OS
Format: toxicity, cell-based
Conditions: human, 24 h, 10 µM, compound concentration 10 uM, replicate 1
The following compounds are shown together with reported Population Pyknosed Nuclei (%) values.
Value kind: Population Pyknosed Nuclei (%)

1. Cl.Oc1ccc2c3c1O[C@H]1c4[nH]c5c(c4C[C@@]4(O)[C@@H](C2)N(CC2CC2)CC[C@]314)C[C@@]1(O)[C@H]2Cc3ccc(O)c4c3[C@@]1(CCN2CC1CC1)[C@H]5O4 = 10
2. CCOC(=O)c1c(C)[nH]c2ccc3c(c12)CN1CCc2cc(OC)ccc2C1O3 (stereo not given) = 37
3. CCCS(=O)(=O)c1nc(NC2CC2)cc(-c2ccc3c(ccn3C3CC(C)(C)NC(C)(C)C3)c2)n1 = 18
4. NC(=O)c1cccc(-c2cc(Nc3ccc(OC(F)(F)F)cc3)ncn2)c1 = 4
5. O=C(Nc1cccnn1)N1CCC(=Cc2cccc(Oc3ccc(C(F)(F)F)cn3)c2)CC1 = 2
6. O=C(Cc1ccc(-c2ccc(OCCN3CCOCC3)cc2)cn1)NCc1ccccc1 = 20
7. CCc1cccc(CC)c1NC(=O)c1nn(C)c2c1CCc1cnc(Nc3ccc(N4CCN(C)CC4)cc3OC)nc1-2 = 18
8. CCCS(=O)(=O)Nc1ccc(F)c(C(=O)c2c[nH]c3ncc(Cl)cc23)c1F = 5
9. COc1cc(N2CCN(C)CC2)ccc1Nc1ncc2c(n1)N(C)c1ccccc1C(=O)N2C = 30
10. CCn1c(=O)c(-c2ccc(-c3cncs3)cc2Cl)cc2cnc(Nc3ccc(N4CCN(C)CC4)cc3)nc21 = 69
11. COc1cccc2cc(-c3nc([C@H]4CC[C@H](C(=O)O)CC4)n4ncnc(N)c34)[nH]c12 = 11
12. O=C1NC(=O)C(c2cnc3ccccn23)=C1c1cn2c3c(cc(F)cc13)CN(C(=O)N1CCCCC1)CC2 = 19
13. CN1CCC(=C2c3ccccc3CC(=O)c3sccc32)CC1.O=C(O)/C=C/C(=O)O [KETOTIFEN FUMARATE] = 25
14. C=CCn1c(=O)c2cnc(Nc3ccc(N4CCN(C)CC4)cc3)nc2n1-c1cccc(C(C)(C)O)n1 = 51
15. C=C1/C(=C\C=C2/CCC[C@]3(C)[C@@H]([C@H](C)/C=C/[C@H](C)C(C)C)CC[C@@H]23)C[C@@H](O)C[C@@H]1O = 37
16. CCCn1c(=O)c2[nH]c(-c3cnn(Cc4cccc(C(F)(F)F)c4)c3)nc2n(CC)c1=O = 14
17. COC(=N)c1nc2ccc3ncnc(Nc4ccc(OC)cc4F)c3c2s1 = 1
18. S=C(NCCCc1c[nH]cn1)NCCCN(Cc1ccc(Cl)c(Cl)c1)c1ccc(Br)cn1 = 49
19. O=C(Nc1ccc(-c2ccnc(Nc3ccc(N4CCOCC4)cc3)n2)cc1)[C@@H]1CCCN1 = 21
20. O=C(Nc1ccc(Cl)cc1)Nc1cccc(-c2cccc(N3CCCC3)n2)c1 = 28
21. COc1ccc(-c2ccc3c(N4CCOCC4)nc(N4C[C@@H](C)O[C@@H](C)C4)nc3n2)cc1CO = 4
22. O=C(Nc1ccc(-n2nc(-c3cccnc3)cc2C(F)(F)F)cn1)c1ccc(-c2ccccc2)c(F)c1 = 18
23. CCN1CCN(c2ccc(Nc3cc(N(C)C(=O)Nc4c(Cl)c(OC)cc(OC)c4Cl)ncn3)cc2)CC1 = 7
24. COc1ccc(S(=O)(=O)N(CCO)c2ccccc2CN(C)C/C=C/c2ccc(Cl)cc2)cc1.O=P(O)(O)O = 6
25. CN(C)C(=O)C(CCN1CCC(O)(c2ccc(Cl)cc2)CC1)(c1ccccc1)c1ccccc1.Cl [LOPERAMIDE HYDROCHLORIDE] = 57
